Quick reference for melting point among some compounds

Recorded melting point, per entry:
### Prompt I am curious: what melting point value has been reported for CC(C)NC(=O)c1cc(Br)cc(Br)c1NC(=O)c1cc(Cl)nn1-c1ncccc1Cl ?
### Response 197 to 199 °C

### Prompt Also CCNC(=O)c1cc(Cl)cc(C)c1NC(=O)c1cc(Br)nn1-c1ncccc1Cl , if possible.
### Response 194 to 195 °C

### Prompt Same again, this time with Cc1cc(Br)cc(C(=O)NC(C)(C)C)c1NC(=O)c1cc(C(F)(F)F)nn1-c1ncccc1Cl
### Response 247 to 248 °C

### Prompt Also CNC(=O)c1cc(Cl)cc(C)c1NC(=O)c1cc(Cl)nn1-c1ncccc1Cl , if possible.
### Response 225 to 226 °C

### Prompt Field entry: CC(C)NC(=O)c1cc(Cl)cc(Cl)c1NC(=O)c1cc(C(F)(F)F)nn1-c1ncccc1Cl
### Response 200 to 201 °C

### Prompt Try this compound next: Cc1cc(I)cc(C(=O)NC(C)(C)C)c1NC(=O)c1cc(C(F)(F)F)nn1-c1ncccc1Cl
### Response 242 to 243 °C

### Prompt // query: CNC(=O)c1cc(Cl)cc(Cl)c1NC(=O)c1cc(Cl)nn1-c1ncccc1Cl
### Response 205 to 206 °C

More entries:
### Prompt Which melting point value is on record for Cc1cc(Br)cc(C(=O)NC(C)C)c1NC(=O)c1cc(C(F)(F)F)nn1-c1ncccc1Cl ?
### Response 197 to 198 °C
